// data source = patent US20210253557A1

molecular target: human V2 receptor (Homo sapiens); assay: Cellular in vitro assay for determining vasopressin receptor activity (V2, CRE-luciferase); conditions: CHO cell line transfected with the human V2 receptor; [Arg8]-vasopressin at EC50 concentration; read-out: IC50 hV2
Sequence (P30518 whole entry): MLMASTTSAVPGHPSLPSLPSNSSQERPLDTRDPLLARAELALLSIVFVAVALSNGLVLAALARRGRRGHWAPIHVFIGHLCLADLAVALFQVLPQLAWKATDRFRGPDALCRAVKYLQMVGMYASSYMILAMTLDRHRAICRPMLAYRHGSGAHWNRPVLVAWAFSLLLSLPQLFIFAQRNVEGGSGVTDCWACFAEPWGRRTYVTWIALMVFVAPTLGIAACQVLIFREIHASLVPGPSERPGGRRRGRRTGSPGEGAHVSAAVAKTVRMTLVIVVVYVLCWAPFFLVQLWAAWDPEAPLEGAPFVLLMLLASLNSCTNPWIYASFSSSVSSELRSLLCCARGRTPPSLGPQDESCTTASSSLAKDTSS
pIC50: −log10 of the molar value.
assayMetric: pIC50

>  <compound>
O=C1NC(c2nc(Cn3nc(-c4ccc(Cl)cc4)n(C[C@H](O)C(F)(F)F)c3=O)nn2-c2ccccc2Cl)CO1 (mixture of isomers) [Example 98]

>  <recordedResult>
8.22

$$$$
>  <compound>
C[C@H](OC(N)=O)c1nc(Cn2nc(-c3ccc(Cl)cc3)n(C[C@H](O)C(F)(F)F)c2=O)nn1-c1cccc(F)c1

>  <recordedResult>
8.42

$$$$
>  <compound>
C[C@H](OC(N)=O)c1nc(Cn2nc(-c3ccc(Cl)cc3)n(C[C@H](O)C(F)(F)F)c2=O)nn1-c1ccccc1OC(F)(F)F

>  <recordedResult>
7.57

$$$$

* * *

biological target: human V1a receptor (Homo sapiens); construct: expressed in transfected cells; host or cells: CHO K1 (ATCC), also stably transfected with a modified aequorin; test: Cellular in vitro assay for determining vasopressin receptor activity (V1a, aequorin luminescence); assay type: cell-based; conditions: selectivity ratio of IC50 hV2 to IC50 hV1a
Sequence (P37288 whole entry): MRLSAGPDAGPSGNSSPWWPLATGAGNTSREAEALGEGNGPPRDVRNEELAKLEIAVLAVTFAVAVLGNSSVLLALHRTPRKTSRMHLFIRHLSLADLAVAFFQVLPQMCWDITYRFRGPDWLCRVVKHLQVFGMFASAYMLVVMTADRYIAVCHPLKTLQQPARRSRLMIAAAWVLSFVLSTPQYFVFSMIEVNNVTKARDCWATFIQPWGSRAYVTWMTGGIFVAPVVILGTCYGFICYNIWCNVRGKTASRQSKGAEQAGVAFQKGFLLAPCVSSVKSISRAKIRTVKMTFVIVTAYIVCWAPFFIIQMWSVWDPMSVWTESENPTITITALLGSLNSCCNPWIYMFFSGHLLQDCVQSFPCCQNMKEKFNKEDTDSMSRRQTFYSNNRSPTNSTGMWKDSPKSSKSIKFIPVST

>  <compound>
CN1C(=O)CC[C@@H]1c1nc(Cn2nc(-c3ccc(Cl)cc3)n(C[C@H](O)C(F)(F)F)c2=O)nn1-c1ncccc1Cl (single isomer, unassigned) [Example 105]

>  <ratio IC50 hV2/hV1a>
24.3

$$$$
>  <compound>
CN1C(=O)CCC1c1nc(Cn2nc(-c3ccc(Cl)cc3)n(C[C@H](O)C(F)(F)F)c2=O)nn1-c1ccccc1Cl (mixture of isomers) [Example 70]

>  <ratio IC50 hV2/hV1a>
8.7

$$$$
>  <compound>
CC(=O)NC(CO)c1nc(Cn2nc(-c3ccc(Cl)cc3)n(C[C@H](O)C(F)(F)F)c2=O)nn1-c1ncccc1OC(F)(F)F (single isomer, unassigned) [Example 121]

>  <ratio IC50 hV2/hV1a>
18.8

$$$$
>  <compound>
NC(=O)OCc1nc(Cn2nc(-c3ccc(Cl)cc3)n(C[C@H](O)C(F)(F)F)c2=O)nn1-c1ccccc1C(F)(F)F [Example 52]

>  <ratio IC50 hV2/hV1a>
6.5

$$$$
>  <compound>
CC(NC(=O)C(F)(F)F)c1nc(Cn2nc(-c3ccc(Cl)cc3)n(C[C@H](O)C(F)(F)F)c2=O)nn1-c1ccccc1Cl (single isomer, unassigned) [Example 74]

>  <ratio IC50 hV2/hV1a>
3.4

$$$$
>  <compound>
COc1ccccc1-n1nc(Cn2nc(-c3ccc(Cl)cc3)n(C[C@H](O)C(F)(F)F)c2=O)nc1C(C)OC(N)=O (single isomer, unassigned) [Example 41]

>  <ratio IC50 hV2/hV1a>
4.8

$$$$
>  <compound>
C[C@@H](OC(N)=O)c1nc(Cn2nc(-c3ccc(Cl)cc3)n(C[C@H](O)C(F)(F)F)c2=O)nn1-c1ccc(F)cc1Cl [Example 4]

>  <ratio IC50 hV2/hV1a>
9.2

$$$$
>  <compound>
CN1C(=O)CCC1c1nc(Cn2nc(-c3ccc(Cl)cc3)n(C[C@H](O)C(F)(F)F)c2=O)nn1CCC(F)(F)F (mixture of isomers) [Example 130]

>  <ratio IC50 hV2/hV1a>
127.9

$$$$
>  <compound>
C[C@H](OC(N)=O)c1nc(Cn2nc(-c3ccc(Cl)cc3)n(C[C@H](O)C(F)(F)F)c2=O)nn1-c1ccccn1 [Example 10]

>  <ratio IC50 hV2/hV1a>
2.0

$$$$
